- System: CAKI-1 renal
- assay comment: NCI-60 one-dose screen, 48 h (100 = growth as untreated, 0 = no growth, -100 = all killed)
- condition set: 10 µM
About 83,000 compounds went through this panel and 20% of them were active in at least one assay; those are over-represented in the sample as a whole.
experimental readout: growth (%)

>>> value_measured("O=C1c2c(c3c4cc(O)ccc4oc3c3[nH]c4ccccc4c23)C(=O)N1O")
-16.5
>>> value_measured("Oc1ccc(CSc2nnc(-c3ccc(Cl)cc3)o2)c2cccnc12")
20.2
>>> value_measured("COc1ccc(NC(=O)[C@H](C)N)cc1C(=O)Nc1cccc(-c2cc(=O)c3c(OC)c(OC)c(OC)cc3o2)c1")
49
>>> value_measured("COc1ccc(/C(C)=C(\\c2ccc(Cl)cc2)c2ccc(OCCN)cc2)cc1")
67.3
>>> value_measured("Cn1cc(-c2nnc(N)nc2-c2cn(C)c3ccc(F)cc23)c2cc(F)ccc21")
79.7
>>> value_measured("C#CCOc1ccc(C(Nc2cc(Cl)ccc2Cl)c2nnnn2C2CCCCC2)cc1 (centres undefined)")
44.4
>>> value_measured("O=C(COc1cccc2cccnc12)Nc1ccc(C(=O)/C=C/c2ccc(Cl)cc2)cc1")
76.2
>>> value_measured("COc1ccc(/C=N\\NC(=O)c2ccc3nc(-c4ccc(Br)cc4)[nH]c3c2)cc1")
35
>>> value_measured("C#C[C@]1(O)CC[C@H]2[C@@H]3CC=C4c5sc(-c6cccc(F)c6)nc5CC[C@]4(C)[C@H]3CC[C@@]21C")
92.4

###

- Tested on: HT29 colon
- assay comment: NCI-60 one-dose screen, 48 h
- condition set: 10 µM unless noted
About 83,000 compounds went through this panel and 20% of them were active in at least one assay; those are over-represented in the sample as a whole. Calls of active or inactive are those of the source. Rule for the calls: active = growth percent below 10; inactive = the rest.
Outcomes: 1.0 for active, 0.0 for inactive

>>> qualitative_label("C#CCOc1ccc(C(Nc2cc(Cl)ccc2Cl)c2nnnn2C2CCCCC2)cc1 (configuration not stated)")
0.0
>>> qualitative_label("C#C[C@]1(O)CC[C@H]2[C@@H]3CC=C4c5sc(Nc6ccc(OC)nc6)nc5CC[C@]4(C)[C@H]3CC[C@@]21C")
1.0
>>> qualitative_label("CC1CCc2c(sc3nc(SCC(=O)N/N=C/c4ccc(Cl)cc4)n(-c4ccccc4)c(=O)c23)C1 (configuration not stated)")
0.0
>>> qualitative_label("CC1(C)CC[C@]2(C(=O)O)CC[C@]3(C)C(=CCC4[C@@]5(C)C[C@@H](O)[C@@H]6OC(c7cccc([N+](=O)[O-])c7)OC[C@@]6(C)C5CC[C@]43C)C2C1 (some centres not stated)")
0.0
>>> qualitative_label("COc1cc2c3c(n(CCCNCC4CC4)c(=O)c2cc1OC)-c1cc2c(cc1C3=O)OCO2")
1.0
>>> qualitative_label("O=C(O)c1ccc(-n2cc(CNc3ccc(F)cc3)c(-c3ccc(C(F)(F)F)cc3)n2)cc1")
0.0
>>> qualitative_label("CC[C@]12C=CCN3CC[C@]4(C(=C(C(=O)OC)C1)Nc1cc5c(cc14)[C@@H]1[C@H](O5)[C@@H](O)[C@@]4(CC)CC(C(=O)OC)=C5Nc6cc(OC)ccc6[C@@]56CCN1[C@@H]46)[C@@H]32")
1.0
>>> qualitative_label("CC(=O)Nc1ccc(C)c(Nc2cc(-c3ccc(-n4cccn4)cc3)[nH]n2)c1")
0.0
>>> qualitative_label("Cc1ccc(NC(=O)N[C@@H](Cc2cc(F)cc(F)c2)C(=O)NC2C(=O)N3CCC[C@H]3C(=O)N3CCCC[C@H]3C(=O)N[C@@H](C)C(=O)N3C[C@H](C)C[C@H]3C(=O)O[C@H]2C)c(F)c1 (some centres not stated)")
0.0
>>> qualitative_label("N#Cc1c(NC(=O)c2ccc(F)c(Cl)c2)sc2c1CCC(=O)C2")
1.0
>>> qualitative_label("COc1ccc([C@H]2[C@H](O)C(=O)N2c2cc(OC)c(OC)c(OC)c2)cc1")
1.0
>>> qualitative_label("CCN1C(=O)N(CC)C2SC(N/N=C/c3ccccc3)=NC21 (configuration not stated)")
1.0
>>> qualitative_label("Clc1ccc(-c2csc(Nc3cccc(Nc4csc(-c5ccc(Cl)cc5)n4)c3)n2)cc1")
0.0
>>> qualitative_label("CCN1C(=O)N(CC)C2SC(N/N=C/c3ccccc3F)=NC21 (configuration not stated)")
1.0
>>> qualitative_label("Brc1cccc(/C=N/Nc2nc(N/N=C/c3cccc(Br)c3)nc(N3CCOCC3)n2)c1")
1.0
>>> qualitative_label("COc1ccc(-c2cc(-c3cccc4ccccc34)n3c(n2)nc2ccccc23)cc1OC")
0.0
>>> qualitative_label("C=C(C)[C@@H]1CC[C@]2(COS(C)(=O)=O)CC[C@]3(C)[C@H](CC[C@@H]4[C@@]5(C)CCCNC(C)(C)[C@@H]5CC[C@]43C)[C@@H]12")
0.0
>>> qualitative_label("COc1ccc([C@H]2c3[nH]c4ccccc4c3C[C@@H]3C(=O)N(C4CCN(Cc5ccccc5)CC4)CC(=O)N23)c(OC)c1")
0.0
>>> qualitative_label("COc1cc(O)c2c(c1)/C=C/C[C@H](O)[C@H](O)C(=O)/C=C\\C[C@H](C)OC2=O")
1.0
>>> qualitative_label("CN(c1ccc(F)cc1)S(=O)(=O)c1ccc(-c2cnc(C3CC3)o2)cc1")
0.0
>>> qualitative_label("O=C(/C=C1\\C=CN(CCCCF)c2ccccc21)n1ccc2ccccc21")
0.0
>>> qualitative_label("CC1=C2C(=C[C@@](C)(COS(N)(=O)=O)[C@@H]2O)C(=O)[C@](C)(O)C12CC2")
0.0
>>> qualitative_label("CCCCSc1nnc(-c2ccc(-c3ccc(Cl)cc3)nc2C)o1")
0.0
>>> qualitative_label("CCCCCCNC(=O)Oc1ccc(/C(=C(\\C)c2ccc(Cl)cc2)c2ccc(OCCN(C)C)cc2)cc1")
1.0
>>> qualitative_label("Cc1ccc(/C=C/CC(=O)Nc2ccc(C(=O)Nc3ccc(F)cc3N)nc2)cn1")
0.0
>>> qualitative_label("COc1ccc(S(=O)(=O)NCCCNc2nccc(-n3cnc4ccccc43)n2)cc1")
0.0
>>> qualitative_label("COc1ccc(NC(=O)[C@H](C)N)cc1C(=O)Nc1cccc(-c2cc(=O)c3c(OC)c(OC)c(OC)cc3o2)c1")
0.0
>>> qualitative_label("O=C1c2c(c3c4cc(Br)ccc4[nH]c3c3ccc4ccccc4c23)C(=O)N1CCN1CCNCC1")
1.0
>>> qualitative_label("C=C(C)C(=O)O[C@H]1C[C@@]2(C)OC(=CC2=O)/C(C)=C\\[C@H]2OC(=O)C(=C)[C@H]12")
1.0
>>> qualitative_label("Cc1ccc(C2CC(c3ccc(Nc4nc(NCCO)nc(Nc5ccc(Cl)cc5)n4)cc3)=Nc3c(N)nc(N)nc3N2)cc1 (configuration not stated)")
1.0
>>> qualitative_label("CCNCc1c(-c2cccc(OC(F)(F)F)c2)[nH]c2ccc(N3CCCC3)cc2c1=O")
1.0
>>> qualitative_label("COCCC[C@H]1O[C@@](O)([C@H](C)[C@@H]2CC(OC)C(O)/C=C(C)/C=C(C)/C=C(\\C)C(OC3O[C@@H](C)[C@H](O)C(O)[C@@H]3O)C(C)/C=C(C)/C=C(OC)/C=C(\\C)C(=O)O2)C(OC)C(O)[C@]1(C)O[C@H]1C[C@@H](O)[C@H](O[C@H]2C[C@](C)(O)[C@H](O)C(C)O2)C(C)O1 (some centres not stated)")
0.0

###

- System: SF-295 CNS
- assay comment: NCI-60 one-dose screen, 48 h (100 = growth as untreated, 0 = no growth, -100 = all killed)
- condition set: 10 µM unless noted
The panel holds about 83,000 compounds, 20% with a hit somewhere; the sample as a whole holds those more often.
# key: entry, value: growth
experimental readout: growth (%)

>>> value_measured("CCOC(=O)C1=C(C)Nc2nnc(Nc3ccccc3)n2C1c1ccccc1 (centres undefined)")
96.6
>>> value_measured("COc1ccc(-c2nc3cc(Cl)c(Cl)cc3n2CC(=O)N=Nc2c(O)[nH]c3ccccc23)cc1")
79.4
>>> value_measured("COc1ccc2c(C3=C(c4c[nH]c5ccccc45)C(=O)N(O)C3=O)coc2c1")
103
>>> value_measured("CS(=O)(=O)c1ccc2c(c1)c1c(n2C(=O)c2ccc(Cl)cc2)CCCC1")
22.5
>>> value_measured("NS(=O)(=O)Oc1ccc2nc(Nc3ccc(F)c(F)c3)ccc2c1")
82.8
>>> value_measured("CCN(CC)Cc1c(-c2cccc(OC(F)(F)F)c2)[nH]c2ccc(N3CCCC3)cc2c1=O")
102
>>> value_measured("COc1ccc([C@H]2c3[nH]c4ccccc4c3C[C@@H]3C(=O)N(C4CCN(Cc5ccccc5)CC4)CC(=O)N23)c(OC)c1")
94.6
>>> value_measured("CN1CCN(c2nc(-c3csc(-c4ccncc4)n3)cc3ccccc23)CC1")
45.8
>>> value_measured("COc1cc(/C=N/n2cnc3oc(-c4ccccc4)cc3c2=N)cc(CN2CCOCC2)c1O")
68.1

Hey, just so you know, these numbers are from PubChem BioAssay (NCI).
